I'd be grateful if you could share measured growth for these entries.
# Tested on: HCT-15 colon
# Test Details: NCI-60 one-dose screen, 48 h (100 = growth as untreated, 0 = no growth, -100 = all killed)
# Particulars: 10 µM unless noted
The panel holds about 83,000 compounds, 20% with a hit somewhere; the sample as a whole holds those more often.
Give a bare numeral; the unit % is implied.

stdin: Return reported growth; argument: CC(C)c1ccc(C(=O)OCCCl)cc1
stdout: 94

stdin: Return reported growth; argument: CCOC(=O)C1(N)CCCCC1
stdout: 112

stdin: Return reported growth; argument: CCc1ccccc1C(=O)N(CC)CC
stdout: 103

stdin: Return reported growth; argument: CCCCCCCCCCCCCC/C=C\C(CC(=O)O)C(=O)O (configuration not stated)
stdout: 107

stdin: Return reported growth; argument: COC1OC(C(COC(C)=O)OC(C)=O)C(OC(C)=O)C(OC(C)=O)C1OC(C)=O (configuration not stated)
stdout: 92.5

stdin: Return reported growth; argument: Nc1ccc2ccccc2c1-c1c(N)ccc2ccccc12
stdout: 30.7

stdin: Return reported growth; argument: CC(C)C1CCC(C)C(O)C1 (configuration not stated)
stdout: 107
